- Test system: VSC4.1 cells, a motor neuron/neuroblastoma cell hybrid
- PROTOCOL_NOTES: VSC4.1 cell proliferation assay (BrdU)
- Assay type: cell-based
- SETUP_CONDITIONS: assay set Oct. 27, 2002; VSC4.1 proliferation
Where no end group is shown, it is not given here.
MEASURED_QUANTITY: Biological Function

Worked cases, Biological Function given:
cyclized MNTF 13mer: cyclized version of the 13-mer CWMLSAFSRYARC, SEQ ID NO:6, research grade (also: cyclized): Limited Efficacy.
FSRYAR [6mer]: Effective
Cyclized MNTF 33mer: cyclized version of the MNTF1 33-mer, SEQ ID NO:1, research grade (LGTFWGDTLNCWMLSAFSRYARCLAEGHDGPTQ; also: cyclized): Limited Efficacy.
FSRYARCLAEG [11mer]: Effective
33mer: 33 amino acid MNTF1-F6 fragment, SEQ ID NO:1, made by solid phase synthesis; positive control in cell proliferation assays (LGTFWGDTLNCWMLSAFSRYARCLAEGHDGPTQ) [reference compound]: Effective

So what's the measured Biological Function for this one? WMLSAFS [7mer]
Effective
